assayed_system: T1, MPDZ_12, O75970
T1 sequence (O75970 1857-1958, limits assumed, looked up): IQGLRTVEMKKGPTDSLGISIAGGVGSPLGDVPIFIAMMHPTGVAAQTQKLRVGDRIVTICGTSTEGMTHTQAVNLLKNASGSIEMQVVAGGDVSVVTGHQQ
assay_overview: holdup assay
Set-up: key: below the threshold = too weak to quantify, mostly under pKd 3.1 to 4
condition_label: plain residues with an end cap or a label only (N-terminal biotin on a linker: ado-ado)
property_label: pKd

Below, 8 binders whose answers are already recorded.
[[record]]
binder = "RRRESYSTTV [EVI5, O60447]"
property_label = "pKd"
experimental_value = "below the threshold"

[[record]]
binder = "MLSKQSESAI [FLVCR1, Q9Y5Y0]"
property_label = "pKd"
experimental_value = "below the threshold"

[[record]]
binder = "SNAGNTATKA [NOSTRIN, Q8IVI9]"
property_label = "pKd"
experimental_value = "below the threshold"

[[record]]
binder = "PRISRSQSEL [CCDC134, Q9H6E4]"
property_label = "pKd"
experimental_value = "below the threshold"

[[record]]
binder = "RRISSLESEV [GRIN2C, Q14957]"
property_label = "pKd"
experimental_value = "below the threshold"

[[record]]
binder = "YNNCLEILRV [DCAF7, P61962]"
property_label = "pKd"
experimental_value = "below the threshold"

[[record]]
binder = "VNKSKLLTDV [KCNA1, Q09470]"
property_label = "pKd"
experimental_value = "below the threshold"

[[record]]
binder = "GNSVLKSTQF [SLC22A12, Q96S37]"
property_label = "pKd"
experimental_value = "below the threshold"


Entry under test: QSARLWETSI [ADAM22, Q9P0K1] . Its pKd was below the threshold

Entry under test: TSSMRGMDAV [RSRC2, Q7L4I2] . Its pKd was below the threshold

Entry under test: DDENIRTSDV [PLEKHA2, Q9HB19] . Its pKd was below the threshold

Entry under test: PPYRHRNTVV [ERBB4, Q15303] . Its pKd was below the threshold

Entry under test: EALLQMESVA [CAVIN3, Q969G5] . Its pKd was below the threshold

Entry under test: PRAEAEDSFL [PDGFRB, P09619] . Its pKd was below the threshold

Entry under test: LRSPRTPSEV [OR10G3, Q8NGC4] . Its pKd was 3.5

Entry under test: SGSLKLMTTV [DACT1, Q9NYF0] . Its pKd was 3.77

Entry under test: QSPANIYYKV [EFNB1, P52799] . Its pKd was below the threshold

Entry under test: LPAHHNATRL [SLC34A1, Q06495;Q06495-1] . Its pKd was below the threshold
